biological target: hA2b/CHO (Homo sapiens (Human)); assay: cAMP inhibition assay in hA2b/CHO cells, 10 μM adenosine; assay type: cell-based; details: read-out: cAMP & FLIPR IC50 (nM) hA2b
Sequence (P29275 whole entry): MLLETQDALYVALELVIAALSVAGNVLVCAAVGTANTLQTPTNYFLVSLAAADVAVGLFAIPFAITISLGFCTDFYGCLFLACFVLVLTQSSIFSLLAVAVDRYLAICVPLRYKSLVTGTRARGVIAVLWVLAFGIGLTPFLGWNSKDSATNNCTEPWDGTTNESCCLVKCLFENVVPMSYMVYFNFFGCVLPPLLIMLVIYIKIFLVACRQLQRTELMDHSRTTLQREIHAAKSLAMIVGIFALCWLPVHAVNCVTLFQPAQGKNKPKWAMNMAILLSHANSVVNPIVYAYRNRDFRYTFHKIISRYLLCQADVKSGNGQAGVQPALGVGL
So I've got a bunch of compounds here, and I need their IC50 values.
Give bare numbers, in nM.

Solved cases (3 shown):
Give reported IC50 value for Cn1cc(-c2nc(C(=O)NCc3c(F)cccc3N3CCOCC3)c(N)nc2-c2ncco2)ccc1=O [Example 39]
2120

Give reported IC50 value for CO[C@H]1C[C@H](NC(=O)c2nc(-c3ccc4ncc(C)n4c3)c(-c3ncco3)nc2N)C1 [Example 151]
193

Give reported IC50 value for Nc1cccc(CNC(=O)c2nc(-c3ccc4nccn4c3)c(-c3ncco3)nc2N)n1 [Example 48]
84

Fill in IC50 for each of the 4 compounds listed.
1. Cc1scnc1CNC(=O)c1nc(-c2ccc3nccn3c2)c(-c2ncco2)nc1N [Example 94]
2. Cn1cnc2ccc(-c3nc(C(=O)NCc4ncccc4OCCO)c(N)nc3-c3ccc(F)cc3)cc21 [Example 113]
3. Cc1cnc2ccc(-c3nc(C(=O)NC[C@@H](C)O)c(N)nc3-c3ncco3)cn12 [Example 145]
4. Cc1cnc2ccc(-c3nc(C(=O)NCC4CCCCO4)c(N)nc3-c3ncco3)cn12 (single isomer, unassigned; isomer 2) [Example 166]

1. 76
2. 68
3. 789
4. 47

Fill in IC50 for each of the 7 compounds listed.
1. Cc1cnc2ccc(-c3nc(C(=O)NCC4CCC(=O)N4C)c(N)nc3-c3ncco3)cn12 (racemic) [Example 212]
2. CNCCOc1cccnc1CNC(=O)c1nc(-c2ccc3ncn(C)c3c2)c(-c2ccc(F)cc2)nc1N [Example 115]
3. COCCNC(=O)c1nc(-c2ccc3ncc(C)n3c2)c(-c2ncco2)nc1N [Example 147]
4. Cn1cc(-c2nc(C(=O)NCc3ncccc3OC(F)(F)F)c(N)nc2-c2ncco2)ccc1=O [Example 30]
5. Cn1cc(-c2nc(C(=O)NCc3c(F)cccc3F)c(N)nc2-c2ncco2)ccc1=O [Example 3]
6. CNCCOc1cccnc1CNC(=O)c1nc(-c2ccc3ncc(C)n3c2)c(-c2ccc(F)cc2)nc1N [Cmpd. 199]
7. Nc1nc(-c2ncco2)c(-c2ccc3nccn3c2)nc1C(=O)NCc1ncccc1F [Example 43]

1. 3430
2. 596
3. 134
4. 603
5. 53
6. 102
7. 159

Give reported IC50 value for COc1cccnc1CNC(=O)c1nc(-c2cc(C)nc(C)c2)c(-c2ccc(F)cc2)nc1N [Example 71]
1940

----------
molecular target: hA2b/CHO (Homo sapiens (Human)); experiment: cAMP inhibition assay in hA2b/CHO cells, 10 μM adenosine; assay type: cell-based; details: read-out: cAMP & FLIPR IC50 (nM) hA2b;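 further: cells exposed to compound 30 min at 37 °C, then stimulated with adenosine a further 30 min, cAMP read after 60 min at room temperature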
# if measured IC50 < 400 nM: T  # else: F

Reference set (6 entries):
Say whether its IC50 is strictly beneath 400 nM. Entry: Cn1cc(-c2nc(C(=O)NCc3c(F)cccc3P(C)(C)=O)c(N)nc2-c2ncco2)ccc1=O
F

Say whether its IC50 is strictly beneath 400 nM. Entry: CCn1cc(-c2nc(C(=O)NCc3ccccc3OC)c(N)nc2-c2ccc(F)cc2)ccc1=O
T

Say whether its IC50 is strictly beneath 400 nM. Entry: Cc1cc(-c2nc(C(=O)NCc3ccccc3C)c(N)nc2-c2ccc(F)cc2)cc(C)n1
F

Say whether its IC50 is strictly beneath 400 nM. Entry: CC(O)Cn1cc(-c2nc(C(=O)NCc3c(F)cccc3F)c(N)nc2-c2ncco2)ccc1=O (single isomer, unassigned) [Example 107]
F

Say whether its IC50 is strictly beneath 400 nM. Entry: Cc1cc(-c2nc(C(=O)NCc3ccccc3OC(F)F)c(N)nc2-c2ccc(F)cc2)cc(C)n1
F

Say whether its IC50 is strictly beneath 400 nM. Entry: Cc1cnc2ccc(-c3nc(C(=O)NCc4cccc(N[C@H]5C[C@@H](N(C)C)C5)n4)c(N)nc3-c3ncco3)cn12
T

More entries:
Say whether its IC50 is strictly beneath 400 nM. Entry: COc1ccccc1CNC(=O)c1nc(-c2cc(C)nc(C)c2)c(-c2ccc(F)cc2)nc1N
F

Say whether its IC50 is strictly beneath 400 nM. Entry: Cc1cnc2ccc(-c3nc(C(=O)NC[C@@H]4CCN(C(=O)C5CC5)C4)c(N)nc3-c3ncco3)cn12
F

Say whether its IC50 is strictly beneath 400 nM. Entry: COCCNC(=O)c1nc(-c2ccc3ncc(C)n3c2)c(-n2nccn2)nc1N
T

Say whether its IC50 is strictly beneath 400 nM. Entry: Cc1cnc2ccc(-c3nc(C(=O)NCCOC(F)(F)F)c(N)nc3-c3ncco3)cn12
T

Say whether its IC50 is strictly beneath 400 nM. Entry: Cc1ccn(-c2nc(N)c(C(=O)Nc3ccccc3OC(F)F)nc2-c2ccc(=O)n(C)c2)n1
F

Say whether its IC50 is strictly beneath 400 nM. Entry: Cn1cc(-c2nc(C(=O)NCc3c(F)cccc3OC(F)F)c(N)nc2-c2ccc(F)cc2)ccc1=O
T

Say whether its IC50 is strictly beneath 400 nM. Entry: Nc1nc(-c2ccc(F)cc2)c(-c2ccc(=O)n(C3COC3)c2)nc1C(=O)NCc1c(F)cccc1F
T

Say whether its IC50 is strictly beneath 400 nM. Entry: Cn1cc(-c2nc(CNC(=O)c3c(F)cccc3C(F)(F)F)c(N)nc2-c2ccc(F)cc2)ccc1=O
F

Say whether its IC50 is strictly beneath 400 nM. Entry: Cc1cnc2ccc(-c3nc(C(=O)NC[C@@H]4CC(F)(F)CN4C)c(N)nc3-c3ncco3)cn12
T

Origin of values: patent US10898481B2
